- stated conditions: in formic acid, 299.12 K

smiles record | solubility (mole fraction)
O=S(=O)([O-])NC1CCCCC1.[Na+] | 0.0239

---

- stated conditions: in formamide, 283.13 K

smiles record | solubility (mole fraction)
O=S(=O)([O-])NC1CCCCC1.[Na+] | 0.0319

---

- stated conditions: in acetic acid, 298.14 K

smiles record | solubility (mole fraction)
O=S(=O)([O-])NC1CCCCC1.[Na+] | 0.00501

---

- stated conditions: in DMSO, 323.2 K

smiles record | solubility (mole fraction)
O=S(=O)([O-])NC1CCCCC1.[Na+] | 0.0183

---

- stated conditions: in acetic acid, 293.15 K

smiles record | solubility (mole fraction)
O=S(=O)([O-])NC1CCCCC1.[Na+] | 0.0037

Where these numbers come from: BigSolDB 2.1
